Encapsulation Efficacy (EE %) reference
# METHOD: Encapsulation efficacy, indirect from free drug in supernatant by UV/VIS
# Type: physicochemical
# CONDITION_DETAILS: liposomal system code 2, DSPE-PEG:CHOL; analogue 1 mg/mL
PROPERTY_NAME: Encapsulation Efficacy (EE %)

1) CC(=O)Nc1ccn(-c2nc(O)c3ccccc3n2)c(=O)n1    58.1
2) Nc1ncnc2c1ncn2-c1nc(O)c2ccccc2n1    55.2
3) Nc1ccn(-c2nc(O)c3ccccc3n2)c(=O)n1    73.6
4) Nc1ncnc2c1ncn2-c1nc(OP(=O)(O)O)c2ccccc2n1    76.8
